- System: M. tuberculosis H37Rv
- procedure summary: MIC vs. M. tuberculosis H37Rv, microplate Alamar Blue assay (MABA)
- Type: cell-based
- assay conditions: Table 2a, 11,12-diols; read-out: Anti-TB Activity MIC
readout type: MIC

Request: Quick one: MIC of CC[C@H]1OC(=O)[C@H](C)C(=O)[C@H](C)[C@@H](O[C@@H]2O[C@H](C)C[C@H](N(C)C)[C@H]2O)[C@](C)(OC)C[C@@H](C)C(=NOCOCCOC)[C@H](C)[C@@H](O)[C@]1(C)O ?
Response: >128 µM

Request: Quick one: MIC of CC[C@H]1OC(=O)[C@H](C)[C@@H](O[C@H]2C[C@@](C)(OC)[C@@H](O)[C@H](C)O2)[C@H](C)[C@@H](O[C@@H]2O[C@H](C)C[C@H](N(C)C)[C@H]2O)[C@](C)(OC)C[C@@H](C)C(=O)[C@H](C)[C@@H](O)[C@]1(C)O [Clarithromycin, reference compound] ?
Response: 8 µM

Request: Quick one: MIC of CC[C@H]1OC(=O)[C@H](C)C(=O)[C@H](C)[C@@H](O[C@@H]2O[C@H](C)C[C@H](N(C)C)[C@H]2O)[C@](C)(OC)C[C@@H](C)C(=NOC2CCCN(C/C=C/c3ccc(-c4ccccc4)cc3)C2)[C@H](C)[C@@H](O)[C@]1(C)O (some centres unmarked) ?
Response: 0.5 µM

Request: Quick one: MIC of CC[C@H]1OC(=O)[C@H](C)[C@@H](O[C@H]2C[C@@](C)(OC)[C@@H](O)[C@H](C)O2)[C@H](C)[C@@H](O[C@@H]2O[C@H](C)C[C@H](N(C)C)[C@H]2O)[C@](C)(O)C[C@@H](C)/C(=N\OCOCc2ccccc2)[C@H](C)[C@@H](O)[C@]1(C)O ?
Response: 7 µM

Request: Quick one: MIC of CC[C@H]1OC(=O)[C@H](C)C(=O)[C@H](C)[C@@H](O[C@@H]2O[C@H](C)C[C@H](N(C)C)[C@H]2O)[C@](C)(OC)C[C@@H](C)C(=O)[C@H](C)[C@@H](O)[C@]1(C)O ?
Response: >128 µM
